Molecular target: Prostate specific antigen (PSA), purified from human seminal fluid (human, UniProt P07288 25-261)
Assay: cell-based or functional assay
Bridge positions count the residues as written; N and C are the ends. Ends that are not written are not given here.
PSA-peptide/PSA ratio values for the binders below.

Binder | PSA-peptide/PSA ratio
CVFTSNYAFC (disulfide 1-10 (inferred)) [A-1-4 (A-1 N6)] | 2.4 ratio
CVAYCIEHHCATC (disulfide (positions not given here); not fully specified) [C-4-6 (C-4 A11)] | 0.9 ratio

Let us examine a further case.
Input: Find the recorded PSA-peptide/PSA ratio belonging to CVFAHNANYLVC (disulfide 1-12 (inferred)) [B-2-5 (B-2 A7)] and report it.
Output: 1.1 ratio

These data points were gathered from patent US20040106557A1.
